The reported numbers originate from ChEMBL document CHEMBL1949657.

tested on: PC-12; assay: Neurotrophic activity in rat PC12 cells assessed as neurite outgrowth at 1 to 10 uM after 24 hrs; assay type: functional, cell-based
The source made the active and inactive calls. The rule behind the calls is not given here.
Outcome codes: active, inactive

1. CC(C)Oc1cc(-c2ccc(N3CCCC3)cc2)nc2ccccc12 inactive
2. CCOc1ccc(/C=C/C(=O)c2cc(C)c(C)cc2O)cc1OCC inactive
3. CCOc1ccc(/C=C/C(=O)c2ccc3ccccc3c2O)cc1OCC inactive
4. COc1cc(-c2ccc(O)cc2)nc2ccccc12 inactive
5. CCOc1ccc(-c2oc3c(ccc4ccccc43)c(=O)c2O)cc1OCC inactive
6. COc1cc(-c2oc3c(ccc4ccccc43)c(=O)c2O)ccc1OCc1ccccc1 active
7. Cc1cc2oc(-c3ccc(O)c(O)c3)c(O)c(=O)c2cc1C inactive
8. O=C(/C=C/c1ccc(O)c(O)c1)c1ccc2ccccc2c1O active
9. O=c1cc(-c2ccc(N3CCCC3)cc2)oc2c1ccc1ccccc12 inactive
10. COc1cc(-c2ccc([N+](=O)[O-])c(O)c2)nc2ccccc12 inactive
11. Cc1cc2oc(-c3ccc(N(C)C)cc3)cc(=O)c2cc1C inactive

---

experiment: Antioxidant activity against ABTS radical assessed as trolox equivalent after 4 mins by TEAC assay; type: functional
The following molecules are listed with their measured Activity values.
measureName: Activity (equiv)

1. Cc1cc2oc(-c3ccc(N4CCCC4)cc3)c(O)c(=O)c2cc1C 2.4
2. CN(C)c1ccc(-c2cc(=O)c3ccc4ccccc4c3o2)cc1 0.24
3. COc1cc(-c2ccc([N+](=O)[O-])c(O)c2)nc2ccccc12 0.18
4. CCOc1ccc(/C=C/C(=O)c2cc(C)c(C)cc2O)cc1OCC 0.09
5. CCOc1cc(-c2ccc(O)c(O)c2)nc2ccccc12 0.9
6. COc1cc(-c2ccc(N(C)C)cc2)nc2ccccc12 0.06
7. Cc1cc(O)c(C(=O)/C=C/c2ccc(O)c(O)c2)cc1C 2.7
8. COc1cc(-c2ccccc2)nc2ccccc12 0.12
9. O=c1cc(-c2ccc(N3CCCC3)cc2)oc2c1ccc1ccccc12 0.03
10. COc1cc(-c2ccc(N3CCCC3)cc2)nc2ccccc12 0.27
11. CC(C)Oc1cc(-c2ccc(O)cc2O)nc2ccccc12 0.27
12. CC(C)Oc1cc(-c2ccc(N(C)C)cc2)nc2ccccc12 0.15

---

experiment: Antioxidant activity against ABTS radical assessed as trolox equivalent after 4 mins by TEAC assay; assay type: functional
measureName: Activity

1) Cc1cc2oc(-c3ccc(N4CCCC4)c(O)c3)c(O)c(=O)c2cc1C 2.79 equiv
2) CN(C)c1ccc(-c2oc3c(ccc4ccccc43)c(=O)c2O)cc1 0.93 equiv
3) COc1cc(-c2cc(=O)c3cc(C)c(C)cc3o2)ccc1O 0.12 equiv
4) COc1ccc(/C=C/C(=O)c2cc(C)c(C)cc2O)cc1OCc1ccccc1 0.12 equiv
5) COc1ccc(/C=C/C(=O)c2cc(C)c(C)cc2O)cc1O 0.12 equiv
6) COc1cc(-c2cc(=O)c3ccc4ccccc4c3o2)ccc1O 0.2 equiv
